- measured.on: Replicase polyprotein 1ab (Severe acute respiratory syndrome coronavirus 2)
- experiment.description: Inhibition of N-terminal 6xHis-tagged SARS-CoV-2 3CLPro expressed in Escherichia coli BL21(DE3) using Hi-lyte Fluor-488-ESATLQSGLRKAK-(QXL-520)-NH2 as substrate preincubated for 10 mins followed by substrate addition measured for 30 mins by fluorometric assay
measured.attribute: pIC50
Give bare numbers, as −log10 of the molar value.

{"compound": "COC(=O)/C=C/[C@H](C[C@@H]1CCNC1=O)NC(=O)[C@H](CC(C)C)NC(=O)OCc1ccccc1", "pIC50": 5.87}

Kindly review the next compound as well.
Q. Provide only the value of recorded pIC50 for CC(C)C[C@H](NC(=O)OCc1ccccc1)C(=O)N[C@H](/C=C/C(=O)N1CCN(CC2CCN(c3cc4c(cc3F)C(=O)N(C3CCC(=O)NC3=O)C4=O)CC2)CC1)C[C@@H]1CCNC1=O (stereo partly drawn)
A. 4.67
